Target: Heat shock protein HSP90 (Homo sapiens) (UniProt P07900+P08238)
Experiment: Inhibition of HSP90 in human MCF7 cells assessed as ER-alpha protein degradation at 1.5 times IC50 measured after 48 hrs by western blot analysis
Assay type: cell-based
Activity calls are given as the source filed them. The calls are words filed in the database; no cut-off is given here.
Labels: yes (active), no (inactive)

{"Smiles Record": "CN(C)CCNc1cc2c(cn1)cc(NC(=O)c1cc3ccccc3s1)c(=O)n2C", "Label": "no"}
{"Smiles Record": "CN(C)CCNc1cc2c(cn1)cc(NC(=O)c1cccc(-c3ccccc3)c1)c(=O)n2C", "Label": "yes"}
{"Smiles Record": "Cn1c(=O)c(NC(=O)c2cccc(-c3ccccc3)c2)cc2cnc(NCCN3CCOCC3)cc21", "Label": "yes"}
{"Smiles Record": "CCCNc1cc2c(cn1)cc(NC(=O)c1cccc(-c3ccccc3)c1)c(=O)n2C", "Label": "yes"}
{"Smiles Record": "CN(C)CCNc1cc2c(cn1)cc(NC(=O)c1ccc(Cl)cc1)c(=O)n2C", "Label": "yes"}
{"Smiles Record": "Cn1c(=O)c(NC(=O)c2cccc(-c3ccccc3)c2)cc2cnc(N3CCN(CCO)CC3)cc21", "Label": "yes"}
{"Smiles Record": "COc1ccc(C(=O)Nc2cc3cnc(N4CCN(CCO)CC4)cc3n(C)c2=O)cc1", "Label": "yes"}

----------
Biological target: Heat shock protein HSP90 (Homo sapiens) (UniProt P07900+P08238)
Assay: Inhibition of HSP90 in human MDA-MB-468 cells assessed as Raf-1 protein degradation at 1.5 times IC50 measured after 48 hrs by western blot analysis
Type: cell-based
The source made the active and inactive calls. The rule behind the calls is not given here.
Labels: active, inactive

{"Smiles Record": "CN(C)CCNc1cc2c(cn1)cc(NC(=O)c1ccc(Cl)cc1)c(=O)n2C", "Test System": "Heat shock protein HSP90 (Homo sapiens) (UniProt P07900+P08238)", "Label": "active"}
{"Smiles Record": "Cn1c(=O)c(NC(=O)c2cccc(-c3ccccc3)c2)cc2cnc(N3CCN(CCO)CC3)cc21", "Test System": "Heat shock protein HSP90 (Homo sapiens) (UniProt P07900+P08238)", "Label": "active"}
{"Smiles Record": "Cn1c(=O)c(NC(=O)c2cccc(-c3ccccc3)c2)cc2cnc(NCCN3CCOCC3)cc21", "Test System": "Heat shock protein HSP90 (Homo sapiens) (UniProt P07900+P08238)", "Label": "active"}
{"Smiles Record": "CCCNc1cc2c(cn1)cc(NC(=O)c1cccc(-c3ccccc3)c1)c(=O)n2C", "Test System": "Heat shock protein HSP90 (Homo sapiens) (UniProt P07900+P08238)", "Label": "active"}
{"Smiles Record": "CN(C)CCNc1cc2c(cn1)cc(NC(=O)c1cc3ccccc3s1)c(=O)n2C", "Test System": "Heat shock protein HSP90 (Homo sapiens) (UniProt P07900+P08238)", "Label": "inactive"}
{"Smiles Record": "COc1ccc(C(=O)Nc2cc3cnc(N4CCN(CCO)CC4)cc3n(C)c2=O)cc1", "Test System": "Heat shock protein HSP90 (Homo sapiens) (UniProt P07900+P08238)", "Label": "active"}
{"Smiles Record": "CN(C)CCNc1cc2c(cn1)cc(NC(=O)c1cccc(-c3ccccc3)c1)c(=O)n2C", "Test System": "Heat shock protein HSP90 (Homo sapiens) (UniProt P07900+P08238)", "Label": "active"}

----------
Test system: MCF7
Test: Antiproliferative activity against human MCF7 cells measured after 5 days by MTS assay
Format: functional, cell-based
Conditions: MCF7, 120 h
pIC50: −log10 of the molar value.
Quantity Name: pIC50

{"Molecule": "C=CCNC1=C2C[C@@H](C)C[C@H](OC)[C@H](O)[C@@H](C)/C=C(\\C)[C@H](OC(N)=O)[C@@H](OC)/C=C\\C=C(/C)C(=O)NC(=CC1=O)C2=O [TANESPIMYCIN]", "Value": 8.30}

----------
Test system: MDA-MB-468
Assay: Effect on HSP90 level in human MDA-MB-468 cells at 1.5 times IC50 measured after 48 hrs by western blot analysis
Type: cell-based
Conditions: mda-mb-468, 48 h

{"Smiles Record": "CN(C)CCNc1cc2c(cn1)cc(NC(=O)c1cc3ccccc3s1)c(=O)n2C", "Test System": "MDA-MB-468", "Activity": "Non-toxic"}
{"Smiles Record": "Cn1c(=O)c(NC(=O)c2cccc(-c3ccccc3)c2)cc2cnc(NCCN3CCOCC3)cc21", "Test System": "MDA-MB-468", "Activity": "Non-toxic"}
{"Smiles Record": "CCCNc1cc2c(cn1)cc(NC(=O)c1cccc(-c3ccccc3)c1)c(=O)n2C", "Test System": "MDA-MB-468", "Activity": "Non-toxic"}
{"Smiles Record": "COc1ccc(C(=O)Nc2cc3cnc(N4CCN(CCO)CC4)cc3n(C)c2=O)cc1", "Test System": "MDA-MB-468", "Activity": "Non-toxic"}
{"Smiles Record": "Cn1c(=O)c(NC(=O)c2cccc(-c3ccccc3)c2)cc2cnc(N3CCN(CCO)CC3)cc21", "Test System": "MDA-MB-468", "Activity": "Toxic"}
{"Smiles Record": "CN(C)CCNc1cc2c(cn1)cc(NC(=O)c1cccc(-c3ccccc3)c1)c(=O)n2C", "Test System": "MDA-MB-468", "Activity": "Toxic"}
{"Smiles Record": "CN(C)CCNc1cc2c(cn1)cc(NC(=O)c1ccc(Cl)cc1)c(=O)n2C", "Test System": "MDA-MB-468", "Activity": "Non-toxic"}

----------
Molecular target: Heat shock protein HSP90 (Homo sapiens) (UniProt P07900+P08238)
Experiment: Inhibition of HSP90 in human MCF-7 cells assessed as ER-alpha protein degradation at 1.5 times IC50 measured after 48 hrs by western blot analysis
Active and inactive are the calls of the source. The rule behind the calls is not given here.
Labels: active, inactive

{"Smiles Record": "CN(C)CCNc1cc2c(cn1)cc(NC(=O)c1cccc(-c3ccccc3)c1)c(=O)n2C", "Label": "active"}
{"Smiles Record": "Cn1c(=O)c(NC(=O)c2cccc(-c3ccccc3)c2)cc2cnc(N3CCN(CCO)CC3)cc21", "Label": "active"}
{"Smiles Record": "CCCNc1cc2c(cn1)cc(NC(=O)c1cccc(-c3ccccc3)c1)c(=O)n2C", "Label": "active"}
{"Smiles Record": "CN(C)CCNc1cc2c(cn1)cc(NC(=O)c1cc3ccccc3s1)c(=O)n2C", "Label": "inactive"}
{"Smiles Record": "COc1ccc(C(=O)Nc2cc3cnc(N4CCN(CCO)CC4)cc3n(C)c2=O)cc1", "Label": "active"}
{"Smiles Record": "CN(C)CCNc1cc2c(cn1)cc(NC(=O)c1ccc(Cl)cc1)c(=O)n2C", "Label": "active"}
{"Smiles Record": "Cn1c(=O)c(NC(=O)c2cccc(-c3ccccc3)c2)cc2cnc(NCCN3CCOCC3)cc21", "Label": "active"}

----------
System: MDA-MB-468
Experiment: Induction of apoptosis in human MDA-MB-468 cells at 2 uM measured after 48 hrs by Annexin V-FITC/propidium iodide staining-based flow cytometry
Assay type: functional, cell-based
Activity calls are given as the source filed them. No cut-off for these calls is given here.
Labels: active, inactive

{"Smiles Record": "CN(C)CCNc1cc2c(cn1)cc(NC(=O)c1cccc(-c3ccccc3)c1)c(=O)n2C", "Label": "active"}
{"Smiles Record": "CN(C)CCNc1cc2c(cn1)cc(NC(=O)c1ccc(Cl)cc1)c(=O)n2C", "Label": "active"}
{"Smiles Record": "CCCNc1cc2c(cn1)cc(NC(=O)c1cccc(-c3ccccc3)c1)c(=O)n2C", "Label": "inactive"}
{"Smiles Record": "Cn1c(=O)c(NC(=O)c2cccc(-c3ccccc3)c2)cc2cnc(NCCN3CCOCC3)cc21", "Label": "inactive"}
